src = patent US20150037348A1

# key: entry, value: koff
# targetUnderTest: T1, human IL-12 (human, UniProt P29459 23-219; P29460 23-328)
# T1 construct: recombinant human IL-12 heterodimer (p35/p40, disulfide-linked); also called hIL-12; rhIL-12
# T1 sequence (looked up) 1: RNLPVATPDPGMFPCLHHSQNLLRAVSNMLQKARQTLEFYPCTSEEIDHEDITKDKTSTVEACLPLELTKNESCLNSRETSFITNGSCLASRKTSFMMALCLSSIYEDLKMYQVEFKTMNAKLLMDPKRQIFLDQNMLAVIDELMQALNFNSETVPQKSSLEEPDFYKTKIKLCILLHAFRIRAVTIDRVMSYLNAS
# T1 sequence (looked up) 2: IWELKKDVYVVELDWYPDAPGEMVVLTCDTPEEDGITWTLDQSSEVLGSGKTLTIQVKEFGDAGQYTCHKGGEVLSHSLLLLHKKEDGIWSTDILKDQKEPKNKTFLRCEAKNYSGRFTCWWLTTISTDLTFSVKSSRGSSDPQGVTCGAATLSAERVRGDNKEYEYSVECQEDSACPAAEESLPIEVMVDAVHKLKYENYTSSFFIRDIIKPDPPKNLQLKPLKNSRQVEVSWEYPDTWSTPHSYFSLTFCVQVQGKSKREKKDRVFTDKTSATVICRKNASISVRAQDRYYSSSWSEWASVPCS
# protocolSummary: SPR (BIAcore), IL-12 chip
# Text: The system utilizes the optical properties of SPR to detect alterations in protein concentrations within a dextran biosensor matrix. Proteins are covalently bound to the dextran matrix at known concentrations. […] To determine the off rate (koff), on rate (kₒₙ), association rate (Ka) and dissociation rate (Kd) constants, BIAcore kinetic evaluation software (version 2.1) was used.
The reply should be a number in s⁻¹, with the unit left off.

Field: example entries. Status: answers known.
1) 149-4 (scFv, V domains shown, scFv) VH: QVQLVQSGGGVVQPGRSLRLSCAASGFTFSSYGMHWVRQAPGKGLEWVAFIRYDGSNKYYADSVKGRFTISRDNSKNTLYLQMKSLRAEDTAVYYCTTHGSHDNWSQGTMVTVSS VL: SYVLTQPPSVSGTPGQRVTISCSGGRSNIGSNTVKWYQQLPGTAPKLLIYGNDQRPSGVPDRFSGSKSGTSASLAITGVQAEDEADYYCQSYDRGFTGSRVFGTGTKVTVL | 0.00137
2) A4 (scFv, V domains shown, scFv) VH: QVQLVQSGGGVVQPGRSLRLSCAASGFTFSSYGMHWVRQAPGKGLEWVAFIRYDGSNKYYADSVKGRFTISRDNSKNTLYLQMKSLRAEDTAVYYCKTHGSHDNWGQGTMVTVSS VL: SYVLTQPPSVSGTPGQRVTISCSGGRSNIGSNTVKWYQQLPGTAPKLLIYGNDQRPSGVPDRFSGSKSGTSASLAITGVQAEDEADYYCQSYDRGRNPALTFGTGTKVTVL | 0.00147
3) A5 (scFv, V domains shown, scFv) VH: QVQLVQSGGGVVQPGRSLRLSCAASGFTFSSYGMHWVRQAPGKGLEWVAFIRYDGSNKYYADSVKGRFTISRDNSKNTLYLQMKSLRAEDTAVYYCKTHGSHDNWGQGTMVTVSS VL: SYVLTQPPSVSGTPGQRVTISCSGGRSNIGSNTVKWYQQLPGTAPKLLIYGNDQRPSGVPDRFSGSKSGTSASLAITGVQAEDEADYYCQSYDRGTHPSMLFGTGTKVTVL | 0.00112
4) 170-21 (scFv, V domains shown, scFv) VH: QVQLVQSGGGVVQPGRSLRLSCAASGFTFSSYGMHWVRQAPGKGLEWVAFIRYDGSNKYYADSVKGRFTISRDNSKNTLYLQMKSLRAEDTAVYYCTTHGSQDNWGQGTMVTVSS VL: SYVLTQPPSVSGTPGQRVTISCSGGRSNIGSNTVKWYQQLPGTAPKLLIYGNDQRPSGVPDRFSGSKSGTSASLAITGVQAEDEADYYCQSYDRGFTGPRLFGTGTKVTVL | 0.00369
5) 78-35 (scFv, V domains shown, scFv) VH: QVQLVQSGGGVVQPGRSLRLSCAASGFTFSSYGMHWVRQAPGKGLEWVAFIRYDGSNKYYADSVKGRFTISRDNSKNTLYLQMKSLRAEDTAVYYCTTSGSYDYWGQGTMVTVSS VL: SYVLTQPPSVSGTPGQRVTISCSGGRSNIGSNTVKWYQQLPGTAPKLLIYGNDQRPSGVPDRFSGSKSGTSASLAITGVQAEDEADYYCQSYDSSLTGSRVFGTGTKVTVL | 0.0499
6) 101-5 (scFv, V domains shown, scFv) VH: QVQLVQSGGGVVQPGRSLRLSCAASGFTFSSYGMHWVRQAPGKGLEWVAFIRYDGSNKYYADSVKGRFTISRDNSKNTLYLQMKSLRAEDTAVYYCTTSGSIDYWGQGTMVTVSS VL: SYVLTQPPSVSGTPGQRVTISCSGGRSNIGSNTVKWYQQLPGTAPKLLIYGNDQRPSGVPDRFSGSKSGTSASLAITGVQAEDEADYYCQSYDSSLTGSRVFGTGTKVTVL | 0.0445

# ---- query binder ----
// recorded koff for B11 (scFv, V domains shown, scFv) VH: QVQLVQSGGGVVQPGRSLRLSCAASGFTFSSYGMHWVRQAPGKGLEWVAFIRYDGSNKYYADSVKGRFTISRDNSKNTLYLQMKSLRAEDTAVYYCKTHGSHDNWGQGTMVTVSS VL: SYVLTQPPSVSGTPGQRVTISCSGGRSNIGSNTVKWYQQLPGTAPKLLIYGNDQRPSGVPDRFSGSKSGTSASLAITGVQAEDEADYYCQSYDRGITPGLAFGTGTKVTVL : 0.00295
